// data source = patent US7527792B1

Tested on: HL60/R10 promyeloid leukaemia cells
assay procedure: Cytotoxicity, MTT test, HL60/R10
Assay type: cell-based, human
setup conditions: Homo sapiens, HL-60; HL60/R10 doxorubicin-resistant cells, MTT
Description: The susceptible K562 chronic myeloid leukaemia cells, resistant K562/ADR cells and HL60/R10 promyeloid leukaemia cells are of human origin and were obtained commercially from the ATCC. […] The susceptible K562 cells and resistant K562/ADR cells are incubated either with free doxorubicin or with doxorubicin in a vector at increasing concentrations after 48 hours in culture in the presence of the products. […] The optical density (OD) is measured at 550 nm (reference 630 nm) using a microplate reader. […]
experimental endpoint: pIC50
// pIC50: -log10(molar conc.)

Q: Recorded pIC50 of COc1cccc2c1C(=O)c1c(O)c3c(c(O)c1C2=O)C[C@@](O)(C(=O)CO)C[C@@H]3O[C@H]1C[C@H](N)[C@H](O)[C@H](C)O1 [Free Doxo, doxorubicin, reference compound] , please.
Ans: 4.40
